Value source: the MegaScale stability set (Tsuboyama et al. 2023)

B1: 5KPH (parent)
chain: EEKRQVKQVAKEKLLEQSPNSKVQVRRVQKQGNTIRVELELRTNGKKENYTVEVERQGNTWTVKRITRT

# Variants of: B1
# Protocol: folding stability dG (cDNA display proteolysis); higher = more stable
# Recorded Conditions: PBS, room temperature
Parameter folding stability dG: see the listing below.
Number in kcal/mol, nothing else.

Recorded folding stability dG, per entry:
Change: T62E
U: kcal/mol
folding stability dG: 3.82
//
Change: P19Y
U: kcal/mol
folding stability dG: 2.13

Prompt line: Name the reported folding stability dG value associated with the variant L14S
Response line: 2.17

Prompt line: // same read-out, input: N59M
Response line: 3.92

Prompt line: // same read-out, input: V9D
Response line: 1.82

Prompt line: // same read-out, input: K64L
Response line: 4.27

Prompt line: // same read-out, input: L14P
Response line: 1.78

Prompt line: // same read-out, input: E38G
Response line: 3.2

Prompt line: // same read-out, input: L41Y
Response line: 2.35

Prompt line: // same read-out, input: K3H
Response line: 4.2

Prompt line: // same read-out, input: E12L
Response line: 3.47
